B1: SAT2 (parent)
chain: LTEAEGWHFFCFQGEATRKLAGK

variants of: B1; assay: protein stability index of a GFP-peptide fusion (GPS, HEK-293T) (PSI 1-6); higher = more stable; settings: c terminus: native;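 also: lentivirally expressed fusions sorted by FACS into six bins by GFP to DsRed ratio, PSI derived from sequencing read proportions per bin multiplied by bin number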

# variant-string, protein stability index
data = [
    ("E15H", 2.13),
    ("E5Q", 2.16),
    ("F12E", 3.33),
    ("L20A", 2.36),
    ("E15S", 1.74),
    ("F10E", 4.18),
    ("A16Y", 2.03),
    ("A4C", 1.45),
    ("E5K", 1.18),
    ("G14D", 3.17),
    ("G6T", 2.03),
    ("F10L", 2.68),
    ("L20M", 2.91),
    ("F10H", 3.46),
    ("T2A", 1.38),
    ("R18N", 2.59),
    ("F9A", 3.78),
    ("H8K", 3.24),
    ("E3W", 1.37),
    ("G22T", 2.27),
    ("W7Q", 4.29),
    ("W7D", 4.63),
    ("T17M", 2.46),
]

Provenance of the data: the supplement of paper PMC10567573
